TEST_PROTOCOL: Individual serum elimination rate and half-life (linear regression per employee)
SETTINGS: individual estimate, subject 7, 5 samples
Each entry falls in a class defined on Elimination rate; the bands are group A: < 0.006 yearly; group B: ≥ 0.006 yearly and < 2 yearly; group C: ≥ 2 yearly

Answered examples (6):
O=S(=O)(O)C(F)(F)C(F)(F)C(F)(F)C(F)(F)C(F)(F)F	group B
O=S(=O)(O)C(F)(F)C(F)(F)C(F)(F)C(F)(F)F	group C
O=C(O)C(F)(F)C(F)(F)C(F)(F)C(F)(F)C(F)(F)C(F)(F)F	group C
O=S(=O)(O)C(F)(F)C(F)(F)C(F)(F)C(F)(F)C(F)(F)C(F)(F)C(F)(F)F	group A
O=S(=O)(O)C(F)(C(F)(F)F)C(F)(F)C(F)(F)C(F)(F)C(F)(F)C(F)(F)C(F)(F)F (stereo not drawn) [1m-PFOS, perfluoro-1-methylheptanesulfonate]	group A
O=C(O)C(F)(F)C(F)(F)C(F)(F)C(F)(F)C(F)(F)F	group B

# bin label for "O=S(=O)(O)C(F)(F)C(F)(F)C(F)(F)C(F)(F)C(F)(F)C(F)(F)F"
group B

# classify by Elimination rate band: "O=C(O)C(F)(F)C(F)(F)C(F)(F)C(F)(F)C(F)(F)C(F)(F)C(F)(F)F"
group B

----------
TEST_PROTOCOL: PFAS levels in serum samples of airport employees (LC/MS/MS)
SETTINGS: females (N=7)
Hi! Just check whether Initial serum PFAS level, median is below 0.6 ng/mL. Below gives met, equal or above gives not met.

Field: example entries. Status: answers known.
O=C(O)C(F)(F)C(F)(F)C(F)(F)C(F)(F)C(F)(F)C(F)(F)C(F)(F)F [PFOA, perfluorooctanoic acid]	not met
O=C(O)C(F)(F)C(F)(F)C(F)(F)C(F)(F)C(F)(F)C(F)(F)F [PFHpA, perfluoroheptanoic acid]	met

Find out if reported Initial serum PFAS level, median for O=C(O)C(F)(F)C(F)(F)C(F)(F)C(F)(F)C(F)(F)F [PFHxA, perfluorohexanoic acid] is less than 0.6 ng/mL
met

Hello, I'm reviewing records and need to know if Initial serum PFAS level, median of O=S(=O)(O)C(F)(F)C(F)(F)C(F)(F)C(F)(F)C(F)(F)C(F)(F)F [PFHxS, perfluorohexane sulfonic acid] is below 0.6 ng/mL. Could you check?
not met

Strictly below 0.6 ng/mL: is that where Initial serum PFAS level, median of O=S(=O)(O)C(F)(F)C(F)(F)C(F)(F)C(F)(F)C(F)(F)C(F)(F)C(F)(F)C(F)(F)F [L-PFOS, linear perfluorooctane sulfonic acid] sits?
not met

# TODO verify Initial serum PFAS level, median < 0.6 ng/mL strictly for this molecule: O=S(=O)(O)C(F)(F)C(F)(F)C(F)(F)C(F)(F)F [PFBS, perfluorobutane sulfonic acid]
met

I wonder whether O=S(=O)(O)C(F)(F)C(F)(F)C(F)(F)C(F)(F)C(F)(F)C(F)(F)C(F)(F)F [PFHpS, perfluoroheptane sulfonic acid] has Initial serum PFAS level, median below 0.6 ng/mL. Can you tell?
not met

Hi there! Is Initial serum PFAS level, median for O=S(=O)(O)C(F)(F)C(F)(F)C(F)(F)C(F)(F)C(F)(F)F [PFPeS, perfluoropentane sulfonic acid] below 0.6 ng/mL, do you know?
not met

I wonder whether O=S(=O)(O)C(F)(C(F)(F)F)C(F)(F)C(F)(F)C(F)(F)C(F)(F)C(F)(F)C(F)(F)F (stereo not drawn) [1m-PFOS, perfluoro-1-methylheptanesulfonate] has Initial serum PFAS level, median below 0.6 ng/mL. Can you tell?
met
